method summary: Components of the Cytosolic LPS Sensing Pathway: Gene Identification via Genome-wide siRNA Screen
experimental parameters: RAW264.7 macrophages, IL-1a HTRF, actives lie on both sides, screened at 100 nM (by protocol), cells primed 5 h with Pam3CSK4 first
In all, about 53,000 sequences went through this assay and about 3,700 (7%) were called active.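 The calls were made as follows: active = gene knockdowns whose robust z-score for IL-1 alpha signal is at least 2 or at most -2, so actives lie on both sides; inactive = the rest.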 This excerpt belongs to a sample that is enriched for actives.
Log the outcome using a class from y = active, n = inactive

Each sequence tested received a call. Report the one for GGAAUUCAAGGGCUCCACATT against Grip1 . n

Recorded test outcome, item GGAUGAGAAACCAUUUAAATT against Oas1f n

What classification did GGAACAAGGAUGUAAAAUUTT against Olfr1090 end up with in this test? n

Answer briefly: the call reported for GGCCAAAAAAACAUACAAGTT against Zbtb21 in this assay. y

Called result for GCAUAUUGUGCGACUUUUCTT against Utp15 y

What did this assay record as the result for GCGUGAACCGUUUGAUGAGTT against 9030612E09Rik ? n

// param item: GCUUAGUUUAUGAGAAUGCTT against Ptprh ; yields the recorded call n

Give the logged outcome of this assay for the following sequence: GGCAACAGUACCAAAGACATT against Rps24 n

Per the assay record, what outcome was assigned to GGGAGACUGUGAAGCUUUATT against Elk4 ? y

Query: recorded result category for GCAUAAGGAUAUAGCAUUATT against Ctla4 in this test n

# outcome recorded in this test, key = GCAUACCAAUCACAGUCGATT against Dync2li1 y

Tell me the recorded outcome of this test for GGACCAAGGCUUUAUGAACTT against Crygn . n

Call for entry GCAAUAACCCAAUUCCUGATT against Phex : n

How did this test come out for CCAGGUGUAUAAUAAGAUGTT against Atp8b3 ? n

Short answer needed: outcome of this test for CCACGCUCUCAAGGUAUAGTT against Cyp2d22 ? y

Assay result, entry GGUGGAGGAACGAAAGUUUTT against Ribc1 — outcome? n

What call does the record list for GGAUAUUCAAAUGGGUGCCTT against Bcl7b ? n

Any idea what this test logged for GCCGUAAGCUAGGAUCUGGTT against 1700065D16Rik ? n

Status in this test for GGAAGAAGAACUGAAGACATT against Ctnnbl1 ? y

Fill in: this test's call for GGAAGUAAUCAAUUUGGUGTT against Epm2aip1 is ___ n

Dear all, I need the recorded test outcome for GGGACACACCAUCAAAAGGTT against Kank4 , thank you. y

Please let me know the test result on file for CCUACCACAACAUGUAUCCTT against S100a11 . y

For this sequence, state the assay outcome: GGGUGAUAGCAAGACACAGTT against Olfr720 n

Would you mind telling me which call this test gave GCUCUAAACAUGAUUCAAGTT against Akap9 ? n

Short answer needed: outcome of this test for GGAAUUCUUAGCCAAUGCCTT against Gas2l1 ? n

Which outcome was entered for the sequence GCCUUUCAUACAUUCAACATT against Olfr313 in this test? n

Status in this test for GGCUUAGUAUGUUGUAUUCTT against Fam241b ? n

I would be grateful if you could indicate the recorded call for GCUGAGAGGUAAAGACACATT against Cntd1 . n

Please indicate how the test categorized CGAUUUCCUUGGCACCAAUTT against Arhgap1 . n

In this assay, the call recorded for CCUGUGCUCUGAGUUUGGCTT against Tmem270 was what? n

Record lookup: outcome of this test for GGAAGAGAAGAAGGAACUUTT against Ada ? n

Would you mind telling me which call this test gave GGAGCUGCUGUUAAUUCCATT against Col5a3 ? n

Per the assay record, what outcome was assigned to CCUUUCCUACUCUGUACCCTT against Abcg1 ? y

In this assay, the call recorded for GGGUGUACAGGAUUUCCACTT against Nfyc was what? n

Identify the outcome logged in this assay for the sequence shown: GGGUGAGAUAGGAAAGUGGTT against Rab43 n

Per the assay record, what outcome was assigned to GAUUUGAGACCCAGAUCAUTT against Gzmm ? y

Per the records of this test, what outcome belongs to CAUUGUCAUUCUGCUGGCATT against Olfr1249 ? n

Tell me the assay call for GGAUGUUAACAUUGAGCAATT against Asb11 please. n

Would you mind telling me which call this test gave GGUCAAAAGACUGUACAUATT against Timm8a2 ? y

Call for entry GGACCGGUGUAAGCUUCGATT against Hinfp : y

Hi team, can someone confirm the assay call for GGCAGCUAAGUACGUUCAUTT against Gba ? n

Recorded call for GGAUAUGCCUCCCUUGAUGTT against Gstt3 ? y

// param item: CGCAUUUUAGUUCAUCUGUTT against Sowahb ; yields the recorded call n

Could you check what this test reported for GGUUUGAGAAUUUGAAGGUTT against Map2k3os ? n

What did the test return for GGGAAGCUAAUAAAAGCACTT against Rgs20 ? n

Fill in: this test's call for CACGACCUAGGUGUGACCATT against Arrdc2 is ___ y

// outcome(item) with item = CCAUCGACUGUUUCAUCCUTT against Olfr987 n

Could you kindly confirm the outcome this assay logged for CCCGGGUUGGGUGUACAUUTT against Sds ? y

# outcome recorded in this test, key = GGCCUAUAAGUUGGACUCCTT against Sstr5 n

Tell me the recorded outcome of this test for GGAGAAGAAGGGAAAGCAUTT against Tub . n
